The reported numbers originate from PubChem BioAssay AID1159580.

test details: chemical genetic growth profiling, strain panel (AID 1159580);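 further: tested at 20 µM; growth read once vehicle control cultures reached saturation at 30 °C; 1 = growth at the plate median or of vehicle wells; lower values mean less growth of the strain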
condition description: S. cerevisiae deletion strains, growth OD, locus YOR080W, strain dia2, stronger effect = lower value
The whole screen tested about 5,500 compounds, of which about 2,000 (36%) were called active. Roughly 18% stayed inconclusive and do not appear here. The list shows a part of the results.
Recorded normalized growth, one value per entry.

{"compound": "CCCCCCCCCCCCCCCC[N+](C)(C)C", "normalized growth": 0.0639}
{"compound": "CN(C)CC/C=C1\\c2ccccc2Sc2ccc(Cl)cc21", "normalized growth": 0.975}
{"compound": "Cc1[nH]c(C)c(Cl)c(=O)c1Cl", "normalized growth": 0.991}
{"compound": "COc1cc2c(cc1OC)C(=O)OC2", "normalized growth": 1.01}
{"compound": "CC(C)OC(=O)C(C)(C)Oc1ccc(C(=O)c2ccc(Cl)cc2)cc1", "normalized growth": 0.972}
{"compound": "CCOC(=O)[C@H](CCc1ccccc1)N[C@H]1CCc2ccccc2N(CC(=O)O)C1=O", "normalized growth": 0.973}
{"compound": "CC(=O)NC1SCCC1=O (stereo not drawn)", "normalized growth": 0.987}
{"compound": "COc1ccc2c(c1OC)C(=O)O[C@@H]2[C@H]1c2cc3c(cc2CCN1C)OCO3", "normalized growth": 0.987}
{"compound": "C=C1C2CC[C@H]3[C@]4(C)C[C@H](OC5OC(CO)C(OS(=O)(=O)O)C(OS(=O)(=O)O)C5OC(=O)CC(C)C)C[C@@H](C(=O)O)[C@H]4CC[C@]3(C2)[C@H]1O (stereo partly drawn)", "normalized growth": 1.02}
{"compound": "CC(=O)O[C@H]1[C@@H]2[C@@H](OC(=O)Cc3ccccc3)[C@@H](C)C[C@]2(OC(C)=O)C(=O)/C(C)=C/[C@H]2[C@H](CC[C@@]13CO3)C2(C)C", "normalized growth": 0.974}
{"compound": "COc1cc(NS(=O)(=O)c2ccc(N)cc2)nc(OC)n1", "normalized growth": 0.966}
{"compound": "C=Cc1c2[nH]c(c1C)C=c1[nH]c(c(C)c1C=C)=CC1N=C(C=c3[nH]c(c(C)c3CCC(=O)O)=C2)C(CCC(=O)O)=C1C (stereo not drawn)", "normalized growth": 1.01}
{"compound": "COc1cc(O)c(C(=O)/C=C/c2ccccc2)c(OC)c1", "normalized growth": 0.966}
{"compound": "COc1cc(O)c(C(=O)/C=C/c2ccc(OC)c(O)c2)c(OC)c1", "normalized growth": 1.01}
{"compound": "CC1=C(C(C)O)C2=NC1C=c1[nH]c(c(C)c1C(C)O)=Cc1[nH]c(c(CCC(=O)O)c1C)C=c1[nH]c(c(C)c1CCC(=O)O)=C2 (stereo not drawn)", "normalized growth": 0.987}
{"compound": "C[C@H]1CC2C([C@@H](O)C[C@@]3(C)C2CC[C@]3(O)C(=O)CO)[C@@]2(C)C=CC(=O)C=C12 (stereo partly drawn)", "normalized growth": 0.986}
{"compound": "CCN(CC)CCNC(=O)c1cc(Br)c(N)cc1OC", "normalized growth": 0.975}
{"compound": "CCOC(=O)CCC(=O)O[C@H]1[C@H](O[C@@H]2[C@@H](C)[C@H](O[C@H]3C[C@@](C)(OC)[C@@H](O)[C@H](C)O3)[C@@H](C)C(=O)O[C@H](CC)[C@@](C)(O)[C@H](O)[C@@H](C)C(=O)[C@H](C)C[C@@]2(C)O)O[C@H](C)C[C@@H]1N(C)C", "normalized growth": 0.978}

---

test details: chemical genetic growth profiling, strain panel (AID 1159580)
condition description: S. cerevisiae deletion strains, growth OD, locus YJL154C, strain vps35, stronger effect = lower value
About 2,000 (36%) of roughly 5,500 compounds were called active. Not shown: some 18% with an inconclusive outcome. This is one part of the list.
normalized growth values, listed per item
metric name: normalized growth

{"compound": "CCCCCCCCCCCCCCCC[N+](C)(C)C", "result": "0.0607 (active)"}
{"compound": "S=c1nc[nH]c2nc[nH]c12", "result": "0.967 (inactive)"}
{"compound": "COc1ccc2c3c1O[C@H]1C[C@@H](O)C=C[C@@]31CCN(C)C2", "result": "1.01 (inactive)"}
{"compound": "Cc1[nH]c(C)c(Cl)c(=O)c1Cl", "result": "0.999 (inactive)"}
{"compound": "CO[C@H]1[C@H](O)[C@H](O[C@H]2CC[C@]3(C)C4CC[C@]5(C)C(C6=CC(=O)OC6)CC[C@]5(O)C4CC[C@@H]3C2)O[C@@H](C)[C@@H]1O (stereo not given in full)", "result": "1.01 (inactive)"}

---

test details: chemical genetic growth profiling, strain panel (AID 1159580);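 further: tested at 20 µM; growth read once vehicle control cultures reached saturation at 30 °C; 1 = growth at the plate median or of vehicle wells; lower values mean less growth of the strain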
condition description: S. cerevisiae deletion strains, growth OD, locus YEL037C, strain rad23, stronger effect = lower value
About 2,000 (36%) of roughly 5,500 compounds were called active. Another 18% or so got no clear call; they are omitted. The list shows a part of the results.
# label = bin(measured normalized growth), where bins are low value = under 0.9, medium value = from 0.9 up to 1, high value = 1 and over

{"structure notation": "CC(C)c1c(C(=O)c2ccccc2)c(-c2ccccc2)c(-c2ccc(F)cc2)n1CC[C@@H](O)C[C@@H](O)CC(=O)O", "label value": "medium value"}
{"structure notation": "COc1cc(O)c(C(=O)/C=C/c2ccccc2)c(OC)c1", "label value": "medium value"}
{"structure notation": "CN(C)c1ccc(C(=C2C=CC(=[N+](C)C)C=C2)c2ccc(N(C)C)cc2)cc1", "label value": "low value"}
{"structure notation": "NC(=O)c1ccc[n+]([C@@H]2O[C@H](COP(=O)([O-])OP(=O)(O)OC[C@H]3O[C@@H](n4cnc5c(N)ncnc54)[C@H](O)[C@@H]3O)[C@@H](O)[C@H]2O)c1", "label value": "high value"}
{"structure notation": "COc1cc(O)c(C(=O)/C=C/c2ccc(O)c(OC)c2)c(OC)c1", "label value": "medium value"}

---

test details: chemical genetic growth profiling, strain panel (AID 1159580);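 further: tested at 20 µM; growth read once vehicle control cultures reached saturation at 30 °C; 1 = growth at the plate median or of vehicle wells; lower values mean less growth of the strain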
condition description: S. cerevisiae deletion strains, growth OD, locus YNL071W, strain lat1
Screen size: about 5,500 compounds; about 2,000 (36%) were called active. Roughly 18% stayed inconclusive and do not appear here. Rule as the data show it: active = normalized growth mostly below about 0.91 (no sharp cut-off); inconclusive = no clear call, values can overlap the other calls; inactive = mostly above about 0.92. Some of the results follow.
Outcome codes: active, inactive

{"molecule": "CCCCCCNC(=O)n1cc(F)c(=O)[nH]c1=O", "label value": "active"}
{"molecule": "Oc1cc(Cl)ccc1Oc1ccc(Cl)cc1Cl", "label value": "active"}
{"molecule": "CC(=O)N[C@@H](CC(C)C)C(=O)O", "label value": "inactive"}
{"molecule": "CC(=O)O[C@@H]1C[C@@]2(C)C(CC[C@@H]2C(C)=O)C2CCC3=CC(=O)CC[C@]3(C)C21 (some centres undefined)", "label value": "inactive"}
{"molecule": "NC(=O)c1ccc[n+]([C@@H]2O[C@H](COP(=O)([O-])OP(=O)(O)OC[C@H]3O[C@@H](n4cnc5c(N)ncnc54)[C@H](O)[C@@H]3O)[C@@H](O)[C@H]2O)c1", "label value": "inactive"}
{"molecule": "CCC(=O)O[C@H]1CCC2C3CCC4=CC(=O)CC[C@]4(C)C3CC[C@@]21C (some centres undefined)", "label value": "active"}
{"molecule": "CC1=C(/C=C/C(C)=C/C=C/C(C)=C/C=C/C=C(C)/C=C/C=C(C)/C=C/C2=C(C)C(=O)C(O)CC2(C)C)C(C)(C)CC(O)C1=O (centres undefined)", "label value": "inactive"}
{"molecule": "C[C@]12CCC(=O)C=C1CCC1C2CC[C@@]2(C)C1CC[C@@H]2O (some centres undefined)", "label value": "inactive"}
{"molecule": "CCOC(=O)C(C)(C)Oc1ccc(Cl)cc1", "label value": "inactive"}

---

test details: chemical genetic growth profiling, strain panel (AID 1159580);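 further: tested at 20 µM; growth read once vehicle control cultures reached saturation at 30 °C; 1 = growth at the plate median or of vehicle wells; lower values mean less growth of the strain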
condition description: S. cerevisiae deletion strains, growth OD, locus YPL153C, strain RAD53, stronger effect = lower value
Screen size: about 5,500 compounds; about 2,000 (36%) were called active. Not shown: some 18% with an inconclusive outcome. The list shows a part of the results.
Entries and their normalized growth

{"structure notation": "Cc1cc(NNC(=O)c2ccccc2Cl)nc2c1c(C)nn2C", "normalized growth": 0.987}
{"structure notation": "O=C(NNc1ccccc1F)c1ccno1", "normalized growth": 0.909}
{"structure notation": "CC(=O)CSc1nnc(-c2ccc(C(C)(C)C)cc2)n1-c1ccc(Cl)cc1", "normalized growth": 0.972}
{"structure notation": "S=C(Nc1ccc(Cl)cc1Cl)N(c1cccc(Cl)c1)c1nc2ccccc2s1", "normalized growth": 0.811}
{"structure notation": "Cc1ccc(Sc2c(Sc3ccc(C)cc3)c(=O)c2=O)cc1", "normalized growth": 0.178}
{"structure notation": "Cc1nnsc1C(=O)Nc1cc(C(F)(F)F)cc(C(F)(F)F)c1", "normalized growth": 0.989}
